Measured melting point accompanies every entry in the list below.

COC(=O)c1cc(Cl)c(NC(C)=O)cc1OC1C=CCCC1 (stereo unspecified) ... 100 to 102 °C
O=C1OC(=O)c2cc3cc(Cl)ccc3cc21 ... 220 °C
C=CCC(NC(C)=O)C(=O)NCc1ccccc1 (stereo unspecified) ... 118 to 120 °C
CC(=O)Nc1c(C(N)=O)n[nH]c1C(C)C ... 162 to 164 °C
Cc1cc(Oc2ncc(C(F)(F)F)cc2Cl)nn1C(=O)Nc1ccc(Cl)c(Cl)c1 ... 150 to 152 °C

# ---- query compound ----
What value of melting point has been recorded for this entry: Cc1ccc(COc2ccccc2C=C2CCCCC2N2CCC2)cc1 (stereo unspecified)
88 to 90 °C

----------
Catalogue of melting point readings, one per entry.

Example molecules with recorded melting point:
CN1CCC(c2c[nH]c3ccc(CCS(=O)(=O)N(C)C)cc23)CC1 ... 170 to 172 °C
CCOC(=O)Nc1ccc2c(c1)CCC2=O ... 181 to 182 °C
Clc1cc2c(cc1Cl)CC=C2 ... 76 °C
O=C(O)Cc1cc(Cl)cc(Cl)c1OCCc1ccccc1 ... 73 to 76 °C
COc1c(Cl)cc(CNc2ccccc2[N+](=O)[O-])cc1Cl ... 128 °C

// below: melting point requested for another molecule
Give its melting point value. Item: COc1ccc(Br)cc1CC#N
60.5 to 60.9 °C

----------
# melting point listing for each entry below

NS(=O)(=O)c1cc2cc(CCBr)ccc2s1 ... 118 to 120 °C
COc1cc(OC)n2nc(S(=O)(=O)Nc3c(Cl)cccc3Cl)nc2c1 ... 252 to 253 °C
Cc1cccc2c(Cl)c(CCCl)nnc12 ... 102 to 104 °C
CCNc1nc2c(ccc3[nH]c4cnc(C(=O)OC(C)C)c(CC)c4c32)s1 ... 275 to 276 °C
O=C(NCCc1ccccc1)c1ccc(OC(F)(F)F)cc1 ... 143 to 144 °C

Then there is this compound:
Quick one: melting point for CC1(C)C=C(c2ccccc2)c2cccc3c2N1C(=O)C3=O ?
210 to 212 °C

----------
OUTCOME_MEASURE: melting point

N#Cc1ccc(C(=O)c2ccc(OC3OCC(O)C(O)C3O)cc2)cc1 (stereo not drawn) ... 189 °C
COc1ccc(-n2nc(CCC#N)cc2-c2ccc(Cl)cc2)cc1 ... 107 to 109 °C
COCN1C(C)=C(C(=O)OCc2ccccc2)C(c2cccc(Cl)c2Cl)C(C(=O)OCc2ccccc2)=C1C ... 116 to 117 °C
Fc1ccc(-c2nc(=S)n(Cc3ccccc3)[nH]2)c(Cl)c1 ... 135 to 136 °C
CCOC(=O)C(C#N)=Cc1c(Cl)n(Cc2ccc(OC)cc2)c2ccccc12 ... 126 to 128 °C
COC(=O)c1cccc(-c2c(C)c(NC(=O)CC(C)(C)C)c(C)c3c2OCC3c2ccc(C(C)C)cc2)c1 (stereo not drawn) ... 206 to 208 °C
N#CSc1ccc(-c2nc3ccc(N)c(SC#N)c3nc2-c2ccco2)o1 ... 185 to 187 °C

I am curious: what melting point value has been reported for CCCCN(CCCC)c1ccc(C=CC2=C(OC)C(=CC=CC3=C(C#N)C(=C(C#N)C#N)OC3(C)C)CC(C)(C)C2)c(OC)c1 ?
244 to 246 °C
